# study system: T1, biotinylated monovalent EpCAM-Fc (human EpCAM ECD-Fc knob avi-his paired with Fc hole) (human, UniProt P01857 104-328 = IgG part, biotin on the avi tag (BirA co-expression))
# T1 construct: also called monovalent EpCAM-Fc construct; huEPCAM-Fc-knob (avi-His) + Fc hole (wt)
# experimental protocol: SPR ProteOn XPR36 off-rate, biotinylated monovalent EpCAM-Fc on NLC chip, 50 nM supernatant
measured parameter: koff (s⁻¹)
Quick reminder: number only, in s⁻¹, skip the unit.

So what does the record say about koff for Monovalent EpCAM (GG05_VH x GG01_VL) (antibody, IgG1, V domains shown, one-armed hu IgG1 PG-LALA, VH/VL-crossed Fab on Fc hole plus empty Fc knob; from supernatant) VH: EVQLVQSGAEVKKPGESLKISCKGSGYSFTQYGMNWVRQMPGKGLEWMGWINTYTGESTYSPSFQGQVTISADKSISTAYLQWSSLKASDTAMYFCARFAIKGDYWGQGTLVTVSS VL: DIVMTQSPLSLPVTPGEPASISCRSSQSLLHSNGITYLYWYLQKPGQSPQLLIYQMSNRASGVPDRFSGSGSGTDFTLKISRVEAEDVGVYYCAQNLEIPRTFGQGTKLEIK ?
0.00545

So what does the record say about koff for Monovalent EpCAM (GG04_VH x GG03_VL) (antibody, IgG1, V domains shown, one-armed hu IgG1 PG-LALA, VH/VL-crossed Fab on Fc hole plus empty Fc knob; from supernatant) VH: EVQLVQSGAEVKKPGESLKISCKGSGYSFTNYGMNWVRQMPGKGLEWMGWINTYTGESTYSPSFQGQVTISADKSISTAYLQWSSLKASDTAMYFCARFAIKGDYWGQGTLVTVSS VL: EIVLTQSPGTLSLSPGERATLSCRASQSLLHSNGITYLYWYQQKPGQAPRLLIYQMSNRATGIPDRFSGSGSGTDFTLTISRLEPEDFAVYYCAQNLEIPRTFGQGTKLEIK ?
0.00538
